System name: T1, recombinant mouse TfR1 (transferrin receptor 1) (mouse, UniProt Q62351 89-763)
T1 construct: Bought recombinant His-tagged protein; also called mTfR1
T1 sequence (Q62351 89-763 limits assumed): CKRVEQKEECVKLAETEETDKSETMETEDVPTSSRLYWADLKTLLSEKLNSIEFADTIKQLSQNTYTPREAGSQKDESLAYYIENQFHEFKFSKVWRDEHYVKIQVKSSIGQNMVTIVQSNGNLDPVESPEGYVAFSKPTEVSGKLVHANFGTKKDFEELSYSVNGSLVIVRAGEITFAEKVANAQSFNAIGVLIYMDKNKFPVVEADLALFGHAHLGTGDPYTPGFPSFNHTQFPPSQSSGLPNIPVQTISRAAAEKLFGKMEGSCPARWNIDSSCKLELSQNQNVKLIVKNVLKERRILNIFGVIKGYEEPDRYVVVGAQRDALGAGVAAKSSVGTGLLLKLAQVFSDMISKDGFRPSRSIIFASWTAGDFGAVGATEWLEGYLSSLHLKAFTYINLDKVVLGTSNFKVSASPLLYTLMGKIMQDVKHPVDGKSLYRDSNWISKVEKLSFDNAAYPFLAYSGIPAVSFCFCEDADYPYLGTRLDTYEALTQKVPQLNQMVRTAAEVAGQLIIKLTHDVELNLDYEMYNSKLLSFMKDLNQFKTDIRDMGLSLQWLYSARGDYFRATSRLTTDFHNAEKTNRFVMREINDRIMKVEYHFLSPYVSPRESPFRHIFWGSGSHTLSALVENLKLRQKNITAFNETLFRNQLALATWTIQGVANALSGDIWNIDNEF
Experiment summary: phage ELISA
Value kind: binding result

Binder: SEQ ID NO 13 (VNAR clone displayed on phage) (VNAR, shark VNAR domain on M13 phage; coat-protein fusion not described) VNAR: ARVDQTPQTITKETGESLTINCVLRDSNCALPSTYRYRKKSGSTNEESISKGGRYVETVNSGSKSFSLRINDLTVEDSGTYRCKVTMVRGRGCYQPARGQDVYGGGTAVTVNA
Value kind: binding result
Reported: binds
--
Binder: SEQ ID NO 50 (VNAR clone displayed on phage) (VNAR, shark VNAR domain on M13 phage; coat-protein fusion not described) VNAR: ARVDQTPRSVTKETGESLTINCVLRDASYALGSTCWYRKKSGSTNEESISKGGRYVETVNSGSKSFSLRINDLTVEDGGTYRCGVMNNVSQTWVRCDSQVMSQQCVQQSAACGDGTAVTVNA
Value kind: binding result
Reported: binds
